Test system: human platelet Caspase-3 activity
Assay: Human platelet toxicity experiment (Caspase-3 activity assay)
Assay type: cell-based
Conditions: compound concentration 0.5 μM, 90 min; data normalized, reference ABT-199
READOUT_NAME: human platelet Caspase-3 activity, Slope
Give bare numbers.

MOLECULE | READOUT_NAME | RECORDED_MEASUREMENT
COCC(=O)N1CCO[C@H](CNc2ccc(S(=O)(=O)NC(=O)c3ccc(N4CCN(CC5=C(c6ccc(C(F)(F)F)cc6Cl)CC(C)(C)CC5)CC4)cc3Oc3cnc4[nH]ccc4c3)cc2[N+](=O)[O-])C1 | human platelet Caspase-3 activity, Slope | 0.42

q: Item CC(=O)N1CCO[C@H](CNc2ccc(S(=O)(=O)NC(=O)c3ccc(N4CCN(CC5=C(c6ccc(C(F)(F)F)cc6Cl)CC(C)(C)CC5)CC4)cc3Oc3cnc4[nH]ccc4c3)cc2[N+](=O)[O-])C1 : provide human platelet Caspase-3 activity, Slope
a: 0.44

The measured values listed here are drawn from patent US20250257064A1.
